As shown below, each of these compounds has a reported GI50 value.
test system: IGROV-1; assay: NCI tumour cell line growth inhibition, 48 h
Activity calls are given as the source filed them. Rule as the data show it: active = GI50 up to about 1.1 µM and inactive = higher.
assay_metric: GI50

O=C(O)C1C2C=CC(O2)C1C(=O)Nc1ccccc1 (stereo unspecified) ... > 100 µM (inactive)
Cn1c(=O)c2ccccc2[n+]2c(-c3cccc([N+](=O)[O-])c3)csc12 ... 68.1 µM (inactive)
Cc1ccccc1-n1c(C)nc(-c2ccccc2)cc1=O ... > 100 µM (inactive)
COC1C(C)OC(OC2CC(C)(O)Cc3cc4c(c(O)c32)C(=O)c2c(O)cc3c(c2C4=O)OC2OC3(C)C(O)C(N(C)C)C2O)C(OC)C1(C)OC (stereo unspecified) ... 0.0197 µM (active)
O=Cc1cc2c(cc1-c1c(C=O)ccc3c1OCO3)OCO2 ... > 10 µM (inactive)
O=C1CCCC1C(=O)Nc1ccc2ccccc2c1 (stereo unspecified) ... > 100 µM (inactive)

* * *

test system: NCI/ADR-RES; assay: NCI tumour cell line growth inhibition, 48 h
Calls of active or inactive are those of the source. Rule as the data show it: active = GI50 up to about 1.1 µM and inactive = higher.
Outcome codes: active, inactive

Nc1nn2c(=O)c3ccccc3nc2s1 ... inactive
COC(=O)C1SC(SC)=NC12c1ccccc1Nc1ccccc12 (stereo not given) ... inactive
C/C1=C\[C@@H](C)C[C@@H](C)OC(=O)[C@@H](C)NC(=O)[C@H](Cc2ccc(O)c(Br)c2)N(C)C(=O)CNC(=O)[C@H](C)C1 ... active
Cc1nc(C(N)=S)sc1C(/C=C/c1ccc(Cl)c(Cl)c1)=N/NC(C)(C)C ... inactive
FC(F)(F)c1ccc(/N=C/C=C(/Nc2ccc(C(F)(F)F)cc2)c2ccc(Cl)cc2)cc1 ... inactive

* * *

Collected GI50 values appear next to each entry.
tested on: ACHN; assay: NCI tumour cell line growth inhibition, 48 h
Activity calls are given as the source filed them. No stated cut-off is given here; in the data, active = GI50 up to about 1.1 µM and inactive = higher.
assay_metric: GI50

C=CCOC1(CC=C)C(=O)OC2C(O)COC21O (stereo not given) ... > 100 µM (inactive)
Cc1ccc(S(=O)(=O)NC(=O)C2(Br)S(=O)(=O)OCCOS2(=O)=O)cc1 ... > 100 µM (inactive)
COc1cc(/C=C2\N=C(c3ccccc3)N(c3nc4ccccc4s3)C2=O)cc(OC)c1OC ... 20.6 µM (inactive)
COC1OC(C(=O)O)C2OC(C)(C)OC12 (stereo not given) ... > 100 µM (inactive)
CCOC(=O)CCC(NC(=O)c1ccc(Nc2nc3ccc(C(F)(F)F)cc3nc2-c2ccccc2)cc1)C(=O)OCC (stereo not given) ... > 73.6 µM (inactive)
O=C1CC(=O)NC(NN2C(=O)CSC2c2ccc(Cl)c(Cl)c2)=N1 (stereo not given) ... > 100 µM (inactive)
O=C1Nc2ccccc2/C1=N/NC(=S)Nc1ccccc1Cl ... 2.19 µM (inactive)
COC(=O)[C@@H](NC1(c2ccccc2)c2ccccc2-c2ccccc21)[C@@H](C(=O)OC)N(NC(=O)OCc1ccccc1)C(=O)OCc1ccccc1.COC(=O)[C@@H](NC1(c2ccccc2)c2ccccc2-c2ccccc21)[C@H](C(=O)OC)N(NC(=O)OCc1ccccc1)C(=O)OCc1ccccc1 ... > 100 µM (inactive)
C=C(CC)C(=O)c1ccc(OCC(=O)O)c(Cl)c1Cl [ETHACRYNIC ACID] ... 26.8 µM (inactive)
N#Cc1nc(Sc2cnsn2)c(Sc2cnsn2)nc1C#N ... 7.1 µM (inactive)
C1CNOCCCONCCCNOCCCONC1 ... > 100 µM (inactive)
O=C(O)CC(CC(=O)O)n1cccc1 ... > 100 µM (inactive)
NC(=S)NS(=O)(=O)c1ccc(Cl)cc1Cl ... > 100 µM (inactive)
N#CCc1nc(C#N)c(N)o1 ... > 100 µM (inactive)
CCOC(=O)/C=C/CCC(C)(C)COC(C)=O ... > 10 µM (inactive)
CC[C@H](C)C(=O)O[C@H]1C[C@@H](C)C=C2C=C[C@H](C)[C@H](CC[C@@H]3C[C@@H](O)CC(=O)O3)[C@H]21 [LOVASTATIN] ... 1.76 µM (inactive)
COc1ccc(/C=C\c2cc(OC)c(OC)c(OC)c2)cc1OCC(=O)O ... 10.2 µM (inactive)
Cc1ccc(OCC2OC(n3cnc4c(Cl)nc(Nc5cc(Cl)cc(Cl)c5)nc43)CC2Oc2ccc(C)cc2)cc1 (stereo not given) ... > 100 µM (inactive)
COc1ccc(-c2cc(=O)c3c(O)cc(O)cc3o2)c(OC)c1OC ... > 10 µM (inactive)
CC(C)C(Nc1c2ccccc2nc2ccccc12)C(=O)O (stereo not given) ... 49.2 µM (inactive)
